- TARGET_OR_SYSTEM: Yap3 (UniProt P38749)
- Sequence: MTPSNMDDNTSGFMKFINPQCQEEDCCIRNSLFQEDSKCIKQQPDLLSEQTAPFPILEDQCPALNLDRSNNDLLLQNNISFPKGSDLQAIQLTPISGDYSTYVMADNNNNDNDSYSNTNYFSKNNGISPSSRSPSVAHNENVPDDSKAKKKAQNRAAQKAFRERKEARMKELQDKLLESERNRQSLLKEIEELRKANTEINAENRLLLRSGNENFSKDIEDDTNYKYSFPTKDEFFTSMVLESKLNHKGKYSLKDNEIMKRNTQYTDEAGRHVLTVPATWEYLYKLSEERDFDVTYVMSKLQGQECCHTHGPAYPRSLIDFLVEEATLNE
- PROTOCOL_DETAILS: PBM E-score (8-mer binding enrichment) (E-score (-0.5 to 0.5)); higher = stronger / more preferred TF binding
- CONDITION_PARAMETERS: protein concentration: 100 nM; construct: GST-full length
In all, about 33,000 sequences were measured (“E-score (-0.5 to 0.5)”: median about -0.0034, highest 2% from about 0.25 on). The list comes from a sample in which the highest values are over-represented; it also holds close analogues and randomly drawn sequences.
Recorded PBM E-score for the following sequences
API note: the answer field is a bare number with no unit suffix.

// solved cases for PBM E-score follow
{"SEQUENCE_CONTENT": "AATAAAGA", "MEASUREMENT_LABEL": "PBM E-score", "READOUT_VALUE": 0.156}
{"SEQUENCE_CONTENT": "ACCATAAG", "MEASUREMENT_LABEL": "PBM E-score", "READOUT_VALUE": -0.0758}
{"SEQUENCE_CONTENT": "ACAGCAAG", "MEASUREMENT_LABEL": "PBM E-score", "READOUT_VALUE": 0.247}

Task: Can you look up PBM E-score on Yap3 (UniProt P38749) for AAGAGTAA ?
Result: 0.0872

Task: Give PBM E-score (Yap3 (UniProt P38749)) of the following sequence: ATCATAAA
Result: 0.193

Task: Checklist item: PBM E-score tested on Yap3 (UniProt P38749), entry GTACTGAA , value?
Result: 0.117

Task: Write down the reported PBM E-score of ACTAAATA , test system: Yap3 (UniProt P38749).
Result: 0.29

Task: What measured PBM E-score is associated with GATAAATA on Yap3 (UniProt P38749)?
Result: 0.233

Task: Give recorded PBM E-score with Yap3 (UniProt P38749) for the following sequence: GCGGTAGA
Result: 0.00783

Task: Give PBM E-score (Yap3 (UniProt P38749)) of the following sequence: AATAAAGG
Result: -0.0245

Task: Under Yap3 (UniProt P38749): PBM E-score value of CACATAAC ?
Result: -0.0392

Task: Could you share what PBM E-score was measured for GACTCATC , tested on Yap3 (UniProt P38749)?
Result: -0.108

Task: Under Yap3 (UniProt P38749): PBM E-score value of GATTACAA ?
Result: 0.154

Task: Look up PBM E-score with Yap3 (UniProt P38749) for this sequence: CAGTGAAC
Result: 0.161

Task: Param readout= PBM E-score; system= Yap3 (UniProt P38749); entry= TCCTTTCA ; returns value.
Result: 0.062

Task: PBM E-score of ACACTCGT on Yap3 (UniProt P38749)?
Result: 0.00445

###

- TARGET_OR_SYSTEM: Yap3 (UniProt P38749)
- Sequence: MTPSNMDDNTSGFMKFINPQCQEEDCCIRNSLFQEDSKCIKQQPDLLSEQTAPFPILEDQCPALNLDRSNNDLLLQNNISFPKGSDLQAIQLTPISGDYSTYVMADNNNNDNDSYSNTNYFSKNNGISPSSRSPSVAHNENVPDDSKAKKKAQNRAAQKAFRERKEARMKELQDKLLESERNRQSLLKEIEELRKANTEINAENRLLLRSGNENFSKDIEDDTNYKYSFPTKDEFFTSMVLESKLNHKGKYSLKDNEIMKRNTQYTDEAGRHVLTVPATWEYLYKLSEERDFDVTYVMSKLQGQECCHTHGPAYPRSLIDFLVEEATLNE
- PROTOCOL_DETAILS: PBM E-score (8-mer binding enrichment) (E-score (-0.5 to 0.5)); higher = stronger / more preferred TF binding
- CONDITION_PARAMETERS: protein concentration: 100 nM; construct: GST-full length
Whole data set: some 33,000 sequences, median “E-score (-0.5 to 0.5)” near -0.0034, cut for the highest 2% near 0.25. This is one part of a sample in which the highest values are shown more often than they occur.
Examples of sequences with documented PBM E-score follow.
Form: value (number only, do not type unit).

Task: I'm curious: which PBM E-score was measured for CCACCAGC tested on Yap3 (UniProt P38749)?
Result: -0.0909

Task: Yap3 (UniProt P38749) / PBM E-score / CCTGCATC : value?
Result: -0.0897

Task: Item: AGCAAAAA Test system: Yap3 (UniProt P38749) Read-out: PBM E-score Value: ?
Result: 0.122

Task: Query for Yap3 (UniProt P38749): what PBM E-score does the record show for TATATATA ?
Result: 0.304

Task: PBM E-score of CTATGATA on Yap3 (UniProt P38749)?
Result: 0.0744

###

- TARGET_OR_SYSTEM: Yap3 (UniProt P38749)
- Sequence: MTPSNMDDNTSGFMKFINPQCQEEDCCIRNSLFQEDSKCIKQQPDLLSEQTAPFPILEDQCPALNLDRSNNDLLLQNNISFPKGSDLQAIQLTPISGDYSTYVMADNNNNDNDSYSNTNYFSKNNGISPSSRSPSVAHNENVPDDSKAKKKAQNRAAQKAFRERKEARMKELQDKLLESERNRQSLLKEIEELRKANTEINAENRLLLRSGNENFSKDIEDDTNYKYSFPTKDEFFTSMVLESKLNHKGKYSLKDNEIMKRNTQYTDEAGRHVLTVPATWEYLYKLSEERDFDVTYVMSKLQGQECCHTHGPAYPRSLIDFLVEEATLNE
- PROTOCOL_DETAILS: PBM E-score (8-mer binding enrichment) (E-score (-0.5 to 0.5)); higher = stronger / more preferred TF binding
- CONDITION_PARAMETERS: protein concentration: 100 nM; construct: GST-full length
Whole data set: some 33,000 sequences, median “E-score (-0.5 to 0.5)” near -0.0034, cut for the highest 2% near 0.25. For the sample, the highest values were picked, then their nearest neighbours and some sequences at random.
MEASUREMENT_LABEL: PBM E-score
Form field (numeric): enter value without unit.

Example cases with answers are listed next.
{"SEQUENCE_CONTENT": "CCTTACTC", "READOUT_VALUE": 0.183}
{"SEQUENCE_CONTENT": "ATATAAGA", "READOUT_VALUE": 0.346}
{"SEQUENCE_CONTENT": "AGTGGCCG", "READOUT_VALUE": -0.119}

Task: Requested field: PBM E-score. Item: AGTGGTTA
Result: 0.142

Task: Would you kindly share the measured PBM E-score for CGGATAGC ?
Result: 0.052

###

- TARGET_OR_SYSTEM: Yap3 (UniProt P38749)
- Sequence: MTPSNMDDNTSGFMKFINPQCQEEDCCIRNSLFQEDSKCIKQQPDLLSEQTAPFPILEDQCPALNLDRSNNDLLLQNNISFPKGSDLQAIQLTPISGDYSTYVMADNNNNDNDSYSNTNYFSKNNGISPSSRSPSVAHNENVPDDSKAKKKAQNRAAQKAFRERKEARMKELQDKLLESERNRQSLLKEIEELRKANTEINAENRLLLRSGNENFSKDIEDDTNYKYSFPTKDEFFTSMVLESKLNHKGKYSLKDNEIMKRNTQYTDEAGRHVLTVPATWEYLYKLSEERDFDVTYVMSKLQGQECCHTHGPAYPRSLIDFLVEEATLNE
- PROTOCOL_DETAILS: PBM E-score (8-mer binding enrichment) (E-score (-0.5 to 0.5)); higher = stronger / more preferred TF binding
- CONDITION_PARAMETERS: protein concentration: 100 nM; construct: GST-full length
Over roughly 33,000 sequences, “E-score (-0.5 to 0.5)” has its median near -0.0034; the highest 2% begin near 0.25. The list comes from a sample in which the highest values are over-represented; it also holds close analogues and randomly drawn sequences.
Catalogue of PBM E-score values
API note: the answer field is a bare number with no unit suffix.

Consider the worked cases shown below.
{"SEQUENCE_CONTENT": "AAACGGAT", "PBM E-score": 0.277}
{"SEQUENCE_CONTENT": "ATGCAGAC", "PBM E-score": -0.0609}
{"SEQUENCE_CONTENT": "CTACGGAA", "PBM E-score": 0.068}
{"SEQUENCE_CONTENT": "GCAACAAA", "PBM E-score": 0.193}
{"SEQUENCE_CONTENT": "GAGAGAAA", "PBM E-score": 0.0853}

Okay, next one:
Task: For Yap3 (UniProt P38749), provide PBM E-score of GACAGAAA please.
Result: 0.183
